Tested on: HeLa
Experiment: Cytotoxicity against human HeLa cells assessed as cell viability after 72 hrs by MTS assay
Format: cell-based
Labelling field: enter yes if recorded CC50 is less than 6 µg/mL. Enter no if it equals or exceeds that cut-off.

Data request: State whether 6 µg/mL exceeds CC50 recorded for N=C(NC1CCC(O)CC1)c1ccc2cc(-c3ccc(-c4cc5ccc(C(=N)NC6CCC(O)CC6)cc5[nH]4)cc3)[nH]c2c1.O=C(O)C(F)(F)F (configuration not stated) .
Data returned: no

Data request: Criterion: CC50 strictly below 6 µg/mL. Is it met by CN(C)CCNC(=N)c1ccc2cc(-c3ccc(-c4cc5ccc(C(=N)NCCN(C)C)cc5[nH]4)cc3)[nH]c2c1.O=C(O)C(F)(F)F ?
Data returned: yes

Data request: Strictly below 6 µg/mL: is that where CC50 of CC(=O)O.c1cc2cc(-c3ccc(-c4ccc5cc(C6=NCCCN6)oc5c4)cc3)[nH]c2cc1C1=NCCCN1 sits?
Data returned: yes
